system.under.test: rat-species vanilloid receptor 1 (VR1/TRPV1) (Rattus norvegicus, UniProt O35433)
Construct: endogenous in cells; host or cells: primary cells dissociated from rat dorsal root ganglia (DRG)
Sequence (O35433 whole entry): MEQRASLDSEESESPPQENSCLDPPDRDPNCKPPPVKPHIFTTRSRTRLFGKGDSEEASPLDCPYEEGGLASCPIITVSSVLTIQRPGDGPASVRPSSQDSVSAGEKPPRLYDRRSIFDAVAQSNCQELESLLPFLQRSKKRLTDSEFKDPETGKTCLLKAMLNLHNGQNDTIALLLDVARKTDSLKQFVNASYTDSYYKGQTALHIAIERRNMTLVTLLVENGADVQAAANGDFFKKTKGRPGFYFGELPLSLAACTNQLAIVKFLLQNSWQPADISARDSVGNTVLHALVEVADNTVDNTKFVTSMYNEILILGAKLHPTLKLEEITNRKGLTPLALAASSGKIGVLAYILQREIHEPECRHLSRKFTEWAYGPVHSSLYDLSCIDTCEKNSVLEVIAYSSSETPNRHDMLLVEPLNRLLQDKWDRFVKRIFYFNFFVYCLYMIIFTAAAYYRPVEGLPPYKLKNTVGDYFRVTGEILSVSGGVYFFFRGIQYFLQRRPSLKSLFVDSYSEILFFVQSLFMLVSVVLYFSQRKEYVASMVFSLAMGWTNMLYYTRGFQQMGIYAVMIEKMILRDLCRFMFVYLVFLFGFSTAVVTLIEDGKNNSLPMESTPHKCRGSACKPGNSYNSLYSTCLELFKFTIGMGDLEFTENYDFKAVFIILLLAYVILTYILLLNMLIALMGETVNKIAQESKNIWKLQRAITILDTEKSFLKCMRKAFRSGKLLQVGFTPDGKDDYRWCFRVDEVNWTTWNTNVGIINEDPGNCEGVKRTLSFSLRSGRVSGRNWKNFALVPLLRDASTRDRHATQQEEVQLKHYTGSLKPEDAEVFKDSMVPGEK
measurement.protocol: Functional testing on vanilloid receptor 1 (VR1/TRPV1): FLIPR Ca2+ inflow assay in rat dorsal root ganglia cells (% activation / % inhibition vs capsaicin)
Type: cell-based
test.parameters: stimulation compared to 10 μM CP (capsaicin)
endpoint: activation at 10 µM (%)
Reply with just the number (in %).

// known answers, use as guide
1. COc1cccc(C2=NOC3(CCN(C(=S)Nc4ccc(C(C)(C)C)cc4)CC3)C2)c1: 0.73
2. CC(C)c1ccc(NC(=O)N2CCC3(CC2)CC(c2ccc(C(C)(C)C)cc2)=NO3)cc1: -0.47
3. O=C(Nc1cccc(C(F)(F)F)c1)N1CCC2(CC1)CC(c1ccccc1)=NO2: -0.47
4. CC(C)(C)c1ccc(/C=C/C(=O)N2CCC3(CC2)CC(c2ccccc2)=NO3)c(Br)c1: 0

Q) // activation at 10 µM lookup, key: O=C(C=Cc1ccc(C(F)(F)F)cc1)N1CCC2(CC1)CC(c1ccccc1)=NO2
A) -6
